methodDescription: chemical genetic growth profiling, strain panel (AID 1159580);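 further: tested at 20 µM; growth read once vehicle control cultures reached saturation at 30 °C; lower values mean less growth of the strain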
appliedConditions: S. cerevisiae deletion strains, growth OD, locus YHR142W, strain chs7
The whole screen tested about 5,500 compounds, of which about 2,000 (36%) were called active. Another 18% or so got no clear call; they are omitted. No stated cut-off is given here; in the data, active means normalized growth mostly below about 0.91 (no sharp cut-off); inconclusive means no clear call, values can overlap the other calls; inactive means mostly above about 0.92. This is one part of the list. Where a SMILES comes first, the peptide text is derived from it. Bridges are numbered along the chain shown (N, C = ends). [ ]: non-standard residue; d: D form. The star is where a group is joined. ξ: configuration not given here. ξDab(CH2SO3H) = NC(CCNCS(=O)(=O)O)C(=O)O; Heptanoyl(6-Me) = CC(C)CCCCC(=O)*; Dab = NCC[CH](N)C(=O)O
Your answer must be one of the following: active, inactive

# example entries with known answers
{"columns": ["molecule", "categoryLabel"],
 "data": [
  ["COc1ccc2c(c1)c(CC(=O)OCC(=O)O)c(C)n2C(=O)c1ccc(Cl)cc1", "inactive"],
  ["Nc1ccc(S(=O)(=O)Nc2cnc3ccccc3n2)cc1", "inactive"],
  ["Cc1cc(O)cc(=O)o1", "inactive"],
  ["Nc1ccc(S(=O)(=O)Nc2ccnn2-c2ccccc2)cc1", "inactive"],
  ["COC(=O)Nc1nc2ccc(S(=O)c3ccccc3)cc2[nH]1 (centres undefined)", "inactive"],
  ["N=C(N)c1ccc(OCCCCCOc2ccc(C(=N)N)cc2)cc1", "inactive"],
  ["CCC(C)C1NC(=O)C(CCNCS(=O)(=O)O)NC(=O)C(NC(=O)C(CCNCS(=O)(=O)O)NC(=O)C(NC(=O)C(CCNCS(=O)(=O)O)NC(=O)CCCCC(C)C)C(C)O)CCNC(=O)C(C(C)O)NC(=O)C(CCNCS(=O)(=O)O)NC(=O)C(CCNCS(=O)(=O)O)NC(=O)C(C(C)CC)NC1=O (centres undefined) ({Heptanoyl(6-Me)}-[ξDab(CH2SO3H)]T[ξDab(CH2SO3H)][Dab][ξDab(CH2SO3H)]II[ξDab(CH2SO3H)][ξDab(CH2SO3H)]T; lactam 4-C; configuration not given here)", "inactive"],
  ["COc1cc(C(=O)O[C@H]2CC[C@@]3(C)[C@@H]4CC[C@H]5[C@]6(O)C[C@H](O)[C@@]7(O)[C@@H](CN8C[C@@H](C)CC[C@H]8[C@@]7(C)O)[C@]6(O)C[C@@]53O[C@]24O)cc(OC)c1OC", "inactive"]
]}

In: Check the results log: what was the call for O=C1C(O)=C(O)C(=O)C(O)=C1O ?
Out: inactive

In: Can you handle COc1c(-c2coc3cc4c(cc3c2=O)CC(O)C(C)(C)O4)ccc2c1C=CC(C)(C)O2 (centres undefined) next?
Out: inactive

In: Can you handle Cc1cc(O)cc(O)c1C(=O)O next?
Out: inactive

In: Can you handle CNCc1ccccc1 next?
Out: inactive

In: Can you handle COC(=O)Nc1nc2ccc(Sc3ccccc3)cc2[nH]1 next?
Out: inactive

In: Can you handle COC(=O)Nc1nc2ccc(C(=O)c3ccccc3)cc2[nH]1 next?
Out: active

In: Can you handle NC(Cc1c[nH]c2ccccc12)C(=O)O (centres undefined) next?
Out: inactive

In: Can you handle Cc1ccc(S(=O)(=O)NC(=O)NN2CC3CCCC3C2)cc1 (centres undefined) next?
Out: inactive

In: Can you handle NNC(=O)c1ccncc1 next?
Out: inactive

In: Can you handle CCOP(=S)(OCC)Oc1nc(Cl)c(Cl)cc1Cl next?
Out: active

In: Can you handle O=C(CNC(=O)c1ccc(Cl)cc1)NO next?
Out: inactive
